Target: TbAQP2 (Trypanosoma brucei brucei)
Sequence (Q6ZXT3 1-312): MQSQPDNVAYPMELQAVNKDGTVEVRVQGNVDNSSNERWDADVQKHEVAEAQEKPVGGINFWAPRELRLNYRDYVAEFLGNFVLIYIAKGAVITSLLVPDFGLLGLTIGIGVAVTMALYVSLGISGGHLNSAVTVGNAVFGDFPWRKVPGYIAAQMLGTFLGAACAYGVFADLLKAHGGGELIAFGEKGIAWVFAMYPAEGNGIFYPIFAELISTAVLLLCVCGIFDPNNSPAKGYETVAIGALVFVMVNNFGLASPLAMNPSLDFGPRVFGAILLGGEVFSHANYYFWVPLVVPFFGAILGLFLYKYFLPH
Conditions: not told, pH 7.2
Measure: permeability of TbAQP2 for the solute

- Compound: "NC(N)=O"
  Measurement: "showed permeability"
- Compound: "OCC(O)CO"
  Measurement: "showed permeability"
- Compound: "N=CN"
  Measurement: "did not pass"
- Compound: "NCC(O)CO (stereo not shown)"
  Measurement: "did not pass"
